System: Candida krusel 766.1
Assay: MIC, NCCLS M27A broth dilution
Type: cell-based
Settings: RPMI 1640, MOPS pH 7
MIC by entry:

# count of solved cases: 3
| chemical_string | experimental_result |
| --- | --- |
| O=c1n(-c2ccc(O)cc2)cnn1C[C@H]1CO[C@@](Cn2cncn2)(c2ccc(F)cc2F)C1 | 16 µg/mL |
| O=c1n(-c2ccc(N3CCN(c4ccc(OCc5ccccc5)cc4)CC3)cc2)cnn1C[C@H]1CO[C@@](Cn2cncn2)(c2ccc(F)cc2F)C1 | 16 µg/mL |
| O=c1n(-c2ccc(Cn3cncn3)cc2)cnn1C[C@@H]1CO[C@@](Cn2cncn2)(c2ccc(F)cc2F)C1 | 16 µg/mL |

Assign MIC to the following record: O=c1n(-c2ccc(OCc3ccccc3)cc2)cnn1C[C@H]1CO[C@@](Cn2cncn2)(c2ccc(F)cc2F)C1 8 µg/mL

Assign MIC to the following record: O=c1n(-c2ccc(-n3cnnn3)cc2)cnn1C[C@@H]1CO[C@@](Cn2cncn2)(c2ccc(F)cc2F)C1 64 µg/mL
